Values were extracted from BigSolDB 2.1.

- MEASUREMENT CONTEXT: in ethanol, 303.15 K
PROPERTY MEASURED: solubility (mole fraction)
No unit in the answer, please; the number alone is enough.

Q: Read the entry `Cc1c(C(=O)/C=C/c2ccccc2)[n+](=O)c2ccccc2n1[O-]` and write its reported solubility (mole fraction).
Result: 0.000233

----------
- MEASUREMENT CONTEXT: in DMF, 293.15 K
PROPERTY MEASURED: solubility (mole fraction)
Just the number, please, no unit attached.

Q: Consider the molecule `Cc1c(C(=O)/C=C/c2ccccc2)[n+](=O)c2ccccc2n1[O-]` . State its measured solubility (mole fraction).
Result: 0.00748

----------
- MEASUREMENT CONTEXT: in water, 313.15 K
PROPERTY MEASURED: solubility (mole fraction)
Keep it simple and answer with nothing but the number.

Q: Quickly give me recorded solubility (mole fraction) for `Cc1c(C(=O)/C=C/c2ccccc2)[n+](=O)c2ccccc2n1[O-]`
Result: 6.12e-06

----------
- MEASUREMENT CONTEXT: in isopropanol, 288.15 K
PROPERTY MEASURED: solubility (mole fraction)
In your answer, state the number alone without any accompanying words.

Q: Hello, please tell me recorded solubility (mole fraction) for this one: `Cc1c(C(=O)/C=C/c2ccccc2)[n+](=O)c2ccccc2n1[O-]`
Result: 0.000104

----------
- MEASUREMENT CONTEXT: in water, 303.15 K
PROPERTY MEASURED: solubility (mole fraction)
Enter the number alone.

Q: Determine its reported solubility (mole fraction): `Cc1c(C(=O)/C=C/c2ccccc2)[n+](=O)c2ccccc2n1[O-]`
Result: 4.62e-06

----------
- MEASUREMENT CONTEXT: in ethanol, 328.15 K
PROPERTY MEASURED: solubility (mole fraction)
Answer as a number with no unit attached.

Q: Give the measured solubility (mole fraction) for `Cc1c(C(=O)/C=C/c2ccccc2)[n+](=O)c2ccccc2n1[O-]`
Result: 0.000611

----------
- MEASUREMENT CONTEXT: in water, 293.15 K
PROPERTY MEASURED: solubility (mole fraction)
Lab note: jot the number down without any unit.

Q: Please look at this compound and report its solubility (mole fraction): `Cc1c(C(=O)/C=C/c2ccccc2)[n+](=O)c2ccccc2n1[O-]`
Result: 3.4e-06

----------
- MEASUREMENT CONTEXT: in isopropanol, 298.15 K
PROPERTY MEASURED: solubility (mole fraction)

Q: Retrieve solubility (mole fraction) measured for `Cc1c(C(=O)/C=C/c2ccccc2)[n+](=O)c2ccccc2n1[O-]` and print it.
Result: 0.00017

----------
- MEASUREMENT CONTEXT: in DMSO, 303.15 K
PROPERTY MEASURED: solubility (mole fraction)
Reply briefly: the number, and no unit.

Q: Specify solubility (mole fraction) for `Cc1c(C(=O)/C=C/c2ccccc2)[n+](=O)c2ccccc2n1[O-]` and stop.
Result: 0.00913

----------
- MEASUREMENT CONTEXT: in ethanol, 283.15 K
PROPERTY MEASURED: solubility (mole fraction)
// no unit, no text: just the number

Q: Return value of solubility (mole fraction) for input `Cc1c(C(=O)/C=C/c2ccccc2)[n+](=O)c2ccccc2n1[O-]` , no commentary.
Result: 9.81e-05

----------
- MEASUREMENT CONTEXT: in DMSO, 308.15 K
PROPERTY MEASURED: solubility (mole fraction)

Q: Note down solubility (mole fraction) recorded for `Cc1c(C(=O)/C=C/c2ccccc2)[n+](=O)c2ccccc2n1[O-]`
Result: 0.0103
